# measured_target: human JAK1 catalytic kinase (JH1) domain (Homo sapiens (Human))
# Sequence (P23458 875-1153): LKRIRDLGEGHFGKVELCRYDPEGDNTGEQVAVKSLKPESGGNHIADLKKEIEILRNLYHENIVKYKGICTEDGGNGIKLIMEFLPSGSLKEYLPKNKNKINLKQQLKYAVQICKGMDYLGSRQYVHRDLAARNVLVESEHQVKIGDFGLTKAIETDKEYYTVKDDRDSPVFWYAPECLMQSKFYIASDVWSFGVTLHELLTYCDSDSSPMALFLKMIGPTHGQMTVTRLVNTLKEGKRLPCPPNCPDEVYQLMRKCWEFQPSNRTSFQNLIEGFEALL
# assay_method_text: ADP-Glo Kinase Assay, recombinant JAK1 catalytic kinase (JH1) domain
# Format: biochemical
# test_conditions: recombinant JH1 domain 4 nM, 35 μM ATP, JAK3-342 peptide, mean, read-out: JAK1 biochem IC50 (nM) Mean
Counter-ions that a name gives are not always drawn.
Consider the following compounds and their measured log10(IC50) readings.
metric_name: log10(IC50) (log10 of the value in nM)

Cn1cc(-c2cc3c(N4CC5CCC(C4)N5C(=O)C4CC4)ncnn3c2)c(F)n1 [Example 145] = 3.37
O=C(C1CC1)N1C2CCC1CN(c1ncnn3cc(-c4ccc5nncn5c4)cc13)C2 [Example 184] = 3.37
COc1nn(C)cc1-c1cc2c(N3CC4CCC(C3)N4C(=O)[C@@H]3C[C@H]3F)ncnn2c1 [Example 98] = 2.83
Cn1cc(-c2[nH]c3nccc(N4CC5CCC(C4)N5C(=O)[C@@H]4C[C@H]4F)c3c2C#N)cn1 [Example 250] = 2.66
CCOC1CC1C(=O)N1C2CCC1CN(c1ncnn3cc(-c4cnn(C(F)F)c4)cc13)C2 (centres unmarked) [Example 35, trifluoroacetate] = 3.67
Cc1cc(-c2cc3c(N4CC5CCC(C4)N5C(=O)[C@@H]4C[C@H]4F)ncnc3[nH]2)ccn1 [Example 230] = 1.96
Cn1cc(-c2cc3c(N4CC5CCC(C4)N5S(=O)(=O)C4CC4)ncnn3c2)cn1 [Example 187] = 3.98
O=C([C@@H]1C[C@H]1F)N1C2CCC1CN(c1ccnc3[nH]c(-c4ccnnc4)nc13)C2 [Example 207] = 2.10
COc1cc(-c2cc3c(N4CC5CCC(C4)N5C(=O)[C@@H]4C[C@H]4F)ccnn3c2)ncn1 [Example 105] = 2.55
Cn1cc(-c2cc3c(N4CC5CCC(C4)N5C(=O)C4CC4)ncnn3c2)cn1 [Example 146] = 3.27
O=C(C1CC1)N1C2CCC1CN(c1ncnc3[nH]c(-c4cnn(C(F)F)c4)cc13)C2 [Example 219] = 2.37
Cn1cc(-c2cc3c(N4CC5CCC(C4)N5C(=O)[C@@H]4C[C@@H]4F)ncnn3c2)cn1 [Example 80] = 3.13
Cn1cc(-c2cc3c(N4CC5CCC(C4)N5C(=O)[C@@H]4C[C@H]4F)ncnn3c2)cn1 [Example 82] = 3.22
Cn1ncc(-c2cc3c(N4CC5CCC(C4)N5C(=O)[C@@H]4C[C@H]4F)ncnn3c2)c1F [Example 97] = 3.12

* * *

# measured_target: human JAK2 catalytic kinase (JH1) domain (Homo sapiens (Human), UniProt O60674)
# Sequence (O60674 849-1124): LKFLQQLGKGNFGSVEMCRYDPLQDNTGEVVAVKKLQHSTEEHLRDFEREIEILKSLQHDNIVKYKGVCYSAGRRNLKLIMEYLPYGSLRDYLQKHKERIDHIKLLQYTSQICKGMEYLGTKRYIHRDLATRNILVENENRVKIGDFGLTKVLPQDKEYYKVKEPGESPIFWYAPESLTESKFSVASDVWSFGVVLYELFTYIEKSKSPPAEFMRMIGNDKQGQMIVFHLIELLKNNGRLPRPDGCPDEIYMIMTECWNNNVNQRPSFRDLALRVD
# assay_method_text: ADP-Glo Kinase Assay, recombinant JAK2 catalytic kinase (JH1) domain
# Type: biochemical
# test_conditions: recombinant JH1 domain 0.2 nM, 15 μM ATP, JAK3-974 peptide, mean, read-out: JAK2 biochem IC50 (nM) Mean
metric_name: IC50 (nM)

CNc1cncc(-c2cc3c(N4CC5CCC(C4)N5C(=O)[C@@H]4C[C@H]4F)ccnn3c2)n1 = 300
O=C(C1C[C@H]1F)N1C2CCC1CN(c1ncnc3[nH]c(-c4ccncc4F)cc13)C2 (stereo partly drawn) = 322
CC1(C)C(C(=O)N2C3CCC2CN(c2ncnn4cc(-c5cnn(C(F)F)c5)cc24)C3)C1(F)F (stereo not drawn) = 9150
